tested on: Candida parapsilosis; assay: Antifungal activity against Candida parapsilosis ATCC 22019 assessed as inhibition of fungal growth after 24 hrs by CLSI protocol based two fold serial dilution method; format: functional; settings: Lodderomyces parapsilosis
Provide the reported MIC of each item.
Answers are plain numbers, in µM.

q: Any idea what MIC was measured for "C=CCN1CCN(c2cc3c(cc2F)c(=O)c(-c2csc(N)n2)cn3CC)CC1" ?
a: 155

q: Any idea what MIC was measured for "CCCCCCN1CCN(c2cc3c(cc2F)c(=O)c(-c2csc(N)n2)cn3CC)CC1" ?
a: 560

q: Any idea what MIC was measured for "CCn1cc(-c2csc(N)n2)c(=O)c2cc(F)c(N3CCN(C=O)CC3)cc21" ?
a: 160

q: Any idea what MIC was measured for "CCOC(=O)CN1CCN(c2cc3c(cc2F)c(=O)c(-c2csc(N)n2)cn3CC)CC1" ?
a: 279

q: Any idea what MIC was measured for "CCCCN1CCN(c2cc3c(cc2F)c(=O)c(-c2csc(N)n2)cn3CC)CC1" ?
a: 19

List the reported MIC of each compound below.
1. CCN(CC)C(=O)CN1CCN(c2cc3c(cc2F)c(=O)c(-c2csc(N)n2)cn3CC)CC1
2. CCn1cc(-c2csc(N)n2)c(=O)c2cc(F)c(N3CCN(C(C)=O)CC3)cc21
3. CCCCCCCCCCCCN1CCN(c2cc3c(cc2F)c(=O)c(-c2csc(N)n2)cn3CC)CC1
4. CCn1cc(-c2csc(N)n2)c(=O)c2cc(F)c(N3CCN(Cc4ccc(Cl)c(Cl)c4)CC3)cc21

a:
1: 132; 2: 39; 3: 473; 4: 8
